Here, each record is paired with measured neutralization IC50, Vero cells data.
STUDY TARGET: ZIKV envelope glycoprotein (E) of strain PRVABC59 (Puerto Rico 2015) (Zika virus)
TEST PROTOCOL: cell-based or functional assay
METRIC: neutralization IC50, Vero cells (nM)

>>> assay_result("H4H25592P (antibody, V domains shown) VH: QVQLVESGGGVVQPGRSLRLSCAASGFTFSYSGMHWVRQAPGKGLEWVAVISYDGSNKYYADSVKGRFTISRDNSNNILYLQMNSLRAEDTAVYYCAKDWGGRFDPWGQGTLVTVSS VL: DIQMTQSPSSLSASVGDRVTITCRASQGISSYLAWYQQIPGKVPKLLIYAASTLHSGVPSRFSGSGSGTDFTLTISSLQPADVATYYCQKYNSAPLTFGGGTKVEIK")
0.218
>>> assay_result("H4H25703N (antibody, V domains shown) VH: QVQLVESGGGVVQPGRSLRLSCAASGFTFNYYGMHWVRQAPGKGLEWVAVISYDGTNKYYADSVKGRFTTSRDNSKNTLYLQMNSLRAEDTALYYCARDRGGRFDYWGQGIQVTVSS VL: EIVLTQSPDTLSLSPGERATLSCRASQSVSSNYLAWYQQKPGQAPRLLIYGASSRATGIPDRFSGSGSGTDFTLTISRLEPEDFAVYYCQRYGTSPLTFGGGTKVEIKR")
0.251
>>> assay_result("H4H25587P (antibody, V domains shown) VH: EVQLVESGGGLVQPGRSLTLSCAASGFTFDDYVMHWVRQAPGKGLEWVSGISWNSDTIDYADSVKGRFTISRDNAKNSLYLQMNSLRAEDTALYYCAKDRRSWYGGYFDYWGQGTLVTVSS VL: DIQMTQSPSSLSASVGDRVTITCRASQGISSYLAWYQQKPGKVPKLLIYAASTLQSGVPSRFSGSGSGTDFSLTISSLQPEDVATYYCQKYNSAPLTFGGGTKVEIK")
0.321
>>> assay_result("H4H25602P (antibody, V domains shown) VH: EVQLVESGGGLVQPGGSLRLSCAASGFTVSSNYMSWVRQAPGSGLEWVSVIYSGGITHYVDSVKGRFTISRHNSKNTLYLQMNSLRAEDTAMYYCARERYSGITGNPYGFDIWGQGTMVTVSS VL: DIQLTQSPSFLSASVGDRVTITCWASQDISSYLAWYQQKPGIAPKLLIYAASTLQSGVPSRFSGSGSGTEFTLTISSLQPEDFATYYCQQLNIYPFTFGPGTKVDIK")
0.501
>>> assay_result("H4H25617P (antibody, V domains shown) VH: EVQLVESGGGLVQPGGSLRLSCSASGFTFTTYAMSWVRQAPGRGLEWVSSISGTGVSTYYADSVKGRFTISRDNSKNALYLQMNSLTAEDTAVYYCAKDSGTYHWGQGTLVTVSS VL: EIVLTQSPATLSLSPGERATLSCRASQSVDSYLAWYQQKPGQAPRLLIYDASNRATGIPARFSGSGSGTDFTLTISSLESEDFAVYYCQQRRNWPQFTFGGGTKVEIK")
0.543

Every entry's value here was drawn from patent US20180016324A1.
